// provenance: patent US9045466B2

The reader will find reported log10 MIC values listed item by item below.
# System: Trichophyton rubrum NBRC 5467
# Assay method text: Fungal susceptibility test, broth microdilution method (MIC)
# Type: cell-based
# Assay context: NBRC5467, 96 h, RPMI/MOPS pH 7.0, 35° C. for 4 days, visual, lowest concentration with approximately 80% growth inhibition, read-out: MIC (μg/mL) T. rubrum NBRC5467
Structures can show the parent of a compound that is named as a salt.
Measure: log10 MIC (log10 of the value in µg/mL)

>  <Compound>
CCN(C)/C=N/c1cc(C)c(Cc2nc(COc3ccc(C)cc3)cs2)cc1C

>  <Target entity>
Trichophyton rubrum NBRC 5467

>  <Observed result>
-3.00

$$$$
>  <Compound>
CN/C=N/c1cc(C)c(Cc2nc(-c3ccc(C(=O)NC)cc3)cs2)cc1C

>  <Target entity>
Trichophyton rubrum NBRC 5467

>  <Observed result>
-0.90

$$$$
>  <Compound>
CCN(C)/C=N/c1cc(C)c(Cc2nc(-c3ccc(C(=O)NC(C)C)cc3)cs2)cc1C

>  <Target entity>
Trichophyton rubrum NBRC 5467

>  <Observed result>
-1.81

$$$$
>  <Compound>
CCN(C)/C=N/c1cc(C)c(Cc2nc(-c3ccc4c(c3)CNC4=O)cs2)cc1C

>  <Target entity>
Trichophyton rubrum NBRC 5467

>  <Observed result>
-1.20

$$$$
>  <Compound>
CCN(C)/C=N/c1cc(C)c(Cc2nc(C(=O)NC3CCCC3)cs2)cc1C

>  <Target entity>
Trichophyton rubrum NBRC 5467

>  <Observed result>
-1.81

$$$$
>  <Compound>
CCN(C)/C=N/c1cc(C)c(Cc2nc(NC(=O)OC(C)C)cs2)cc1C

>  <Target entity>
Trichophyton rubrum NBRC 5467

>  <Observed result>
-2.11

$$$$
>  <Compound>
CCN(C)/C=N/c1cc(C)c(Cc2nc(-c3ccc(C(=O)NC)cc3)cs2)cc1C

>  <Target entity>
Trichophyton rubrum NBRC 5467

>  <Observed result>
-2.11

$$$$
>  <Compound>
COC(=O)CN(C)/C=N/c1cc(C)c(Cc2nc(-c3ccc(C)cc3)cs2)cc1C

>  <Target entity>
Trichophyton rubrum NBRC 5467

>  <Observed result>
-0.60

$$$$
>  <Compound>
CCN(C)/C=N/c1cc(C)c(Cc2nc(-c3ccc(C)cc3)ns2)cc1C

>  <Target entity>
Trichophyton rubrum NBRC 5467

>  <Observed result>
-2.70

$$$$
>  <Compound>
CCN(C)/C=N/c1cc(C)c(Cc2nc(-c3ccc(C(=O)N4CCC4)cc3)cs2)cc1C

>  <Target entity>
Trichophyton rubrum NBRC 5467

>  <Observed result>
-1.20

$$$$
>  <Compound>
Cc1ccc(-c2csc(Cc3cc(C)c(/N=C/N4CCCC4)cc3C)n2)cc1

>  <Target entity>
Trichophyton rubrum NBRC 5467

>  <Observed result>
-2.41

$$$$
>  <Compound>
CCN(C)/C=N/c1cc(C)c(Cc2nc(C3CCOCC3)cs2)cc1C

>  <Target entity>
Trichophyton rubrum NBRC 5467

>  <Observed result>
-1.81

$$$$
>  <Compound>
CCN(C)/C=N/c1cc(C)c(Cc2nc(OC(C)C)cs2)cc1C

>  <Target entity>
Trichophyton rubrum NBRC 5467

>  <Observed result>
-2.41

$$$$
>  <Compound>
CCN(C)/C=N/c1cc(C)c(Cc2nc(C3CCC(C(=O)NC)CC3)cs2)cc1C (stereo not drawn)

>  <Target entity>
Trichophyton rubrum NBRC 5467

>  <Observed result>
-1.81

$$$$
>  <Compound>
CCN(C)/C=N/c1cc(C)c(Cc2nc(C(O)c3ccc(Cl)cc3)cs2)cc1C (stereo not drawn)

>  <Target entity>
Trichophyton rubrum NBRC 5467

>  <Observed result>
-2.11

$$$$
>  <Compound>
CCN(C)/C=N/c1cc(C)c(Cc2nc(-c3cc(F)c(C)cc3F)cs2)cc1C [Example 58, hydrobromide]

>  <Target entity>
Trichophyton rubrum NBRC 5467

>  <Observed result>
-3.00

$$$$
>  <Compound>
CCN(C)/C=N/c1cc(C)c(Cc2nc(-c3ccc(S(C)(=O)=O)cc3)cs2)cc1C [Example 23, dihydrochloride]

>  <Target entity>
Trichophyton rubrum NBRC 5467

>  <Observed result>
-2.41

$$$$
>  <Compound>
CCN(C)/C=N/c1cc(C)c(Cc2nc(C(=O)NC(C)(C)CC)cs2)cc1C

>  <Target entity>
Trichophyton rubrum NBRC 5467

>  <Observed result>
-2.41

$$$$
